B1: Lysozyme C, P61626 (parent)
chain: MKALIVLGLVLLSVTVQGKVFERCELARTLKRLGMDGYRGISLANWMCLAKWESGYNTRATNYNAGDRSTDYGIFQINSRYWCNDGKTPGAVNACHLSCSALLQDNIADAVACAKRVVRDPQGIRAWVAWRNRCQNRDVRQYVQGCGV

Variants of: B1
Conditions: Homo sapiens; pH 2.7; Thermal; DSC; glycine 0.05 M; reversible: yes; structure 1LZ1; whole UniProt chain shown
ENDPOINT_LABEL: heat capacity change of unfolding (kcal/mol/K)
Record the value in kcal/mol/K, omitting the unit from your answer.

Recorded heat capacity change of unfolding, per entry:
* V139A | 1.53
* V148A | 1.51
* V92A | 1.48

heat capacity change of unfolding reported for this variant `V143A` : 1.29

heat capacity change of unfolding reported for this variant `V117A` : 1.58

heat capacity change of unfolding reported for this variant `V118A` : 1

heat capacity change of unfolding reported for this variant `V20A` : 1.56

heat capacity change of unfolding reported for this variant `V128A` : 1.24

heat capacity change of unfolding reported for this variant `V111A` : 1.53
